B1: KLHL14 (parent)
chain: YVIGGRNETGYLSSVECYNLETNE

- Variants of: B1
- PROTOCOL: protein stability index of a GFP-peptide fusion (GPS, HEK-293T) (PSI 1-6); higher = more stable;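 also: lentivirally expressed fusions sorted by FACS into six bins by GFP to DsRed ratio, PSI derived from sequencing read proportions per bin multiplied by bin number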
- RUN CONDITIONS: c terminus: a fixed tail appended
Hi, to clarify the labels: true covers protein stability index from 2 upward, false covers anything below 2.

Known results for variants:
>>> df
           sequence_content  class
0  YVIGGRNETGYLSSVECRNLETNE   true
1  YGIGGRNETGYLSSVECYNLETNE   true
2  YVIGGRNETGYLSDVECYNLETNE   true
3  YVIGGVNETGYLSSVECYNLETNE  false
4  QVIGGRNETGYLSSVECYNLETNE   true

Req: I'd appreciate it if you could say whether YVIGGRPETGYLSSVECYNLETNE has protein stability index at least equal to 2.
Resp: false

Req: Does the variant YVIGGRNETGYLSSVECYNLETNP have recorded protein stability index that is 2 or more?
Resp: false

Req: Form field: protein stability index at least 2? Entry: YVIGGRNETGYLSSVECYNLENNE
Resp: false

Req: # check: protein stability index of YVIGGRNETGYLSSVECYNEETNE is greater than or equal to 2
Resp: true

Req: Reported protein stability index at or above 2? YVIGGRNETGYLSSVECYNLYTNE
Resp: true

Req: Threshold query (protein stability index >= 2) on YVDGGRNETGYLSSVECYNLETNE
Resp: true

Req: Does the variant YVIGGRNETGYLSSVEAYNLETNE have recorded protein stability index that is 2 or more?
Resp: true

Req: Is protein stability index for YVIGGRNECGYLSSVECYNLETNE at or above 2?
Resp: false
